- Species: Homo sapiens
- assayExplanation: Selectivity of IC50 for human D2 like receptor to IC50 for human D3 receptor
metricName: fold change (FC)
Please reply with the number alone, leaving off any unit.

- COc1ccccc1N1CCN(CCCCNC(=O)c2cc3ccccc3s2)CC1: 100

Now for a further compound.
Enquiry: // Input: COc1ccccc1N1CCN(CC(O)CCNC(=O)c2cc3cc(F)ccc3[nH]2)CC1 (centres undefined) . Output its fold change (FC) only.
Return: 100

====

// pKi lookup, one value per entry
- targetUnderTest: D(1A) dopamine receptor (Homo sapiens)
- Sequence (P21728 whole entry): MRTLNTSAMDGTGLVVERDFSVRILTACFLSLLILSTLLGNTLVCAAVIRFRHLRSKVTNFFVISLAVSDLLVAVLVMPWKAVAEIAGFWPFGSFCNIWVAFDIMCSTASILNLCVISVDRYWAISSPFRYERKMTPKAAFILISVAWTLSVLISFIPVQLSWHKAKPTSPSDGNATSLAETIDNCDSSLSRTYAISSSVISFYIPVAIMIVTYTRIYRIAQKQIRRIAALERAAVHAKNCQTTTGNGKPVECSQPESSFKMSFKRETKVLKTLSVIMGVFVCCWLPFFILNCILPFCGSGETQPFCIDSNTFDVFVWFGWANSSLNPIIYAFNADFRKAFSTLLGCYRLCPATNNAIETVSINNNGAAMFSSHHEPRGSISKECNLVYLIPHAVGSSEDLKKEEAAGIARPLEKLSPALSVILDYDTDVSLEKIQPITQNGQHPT
- assayExplanation: Displacement of [3H]SCH23390 from D1 receptor
pKi (log units): -log10 of the concentration in mol/L.

- CCCOc1ccccc1N1CCN(CC(O)CCNC(=O)c2cc3ccccc3[nH]2)CC1 (stereo not given): 5.30

Enquiry: // Input: "O=C(NC/C=C/CN1CCN(c2cccc(Cl)c2Cl)CC1)c1cc2ccccc2[nH]1" . Output its pKi only.
Return: 6.04

Enquiry: // Input: COc1ccccc1N1CCN(CC(O)CCNC(=O)c2cc3ccccc3s2)CC1 (stereo not given) . Output its pKi only.
Return: 5.18

Enquiry: // Input: "O=C(NC/C=C/CN1CCN(c2cccc(Cl)c2Cl)CC1)c1cc2ccccc2s1" . Output its pKi only.
Return: 5.76

Enquiry: // Input: COc1ccccc1N1CCN(CC(O)CCNC(=O)c2cc3cc(F)ccc3[nH]2)CC1 (stereo not given) . Output its pKi only.
Return: 5.30

Enquiry: // Input: COc1ccccc1N1CCN(CC(O)CCNC(=O)c2cc3cc(I)ccc3o2)CC1 (stereo not given) . Output its pKi only.
Return: 5.43

Enquiry: // Input: "COc1ccccc1N1CCN(C/C=C/CNC(=O)c2cc3ccccc3o2)CC1" . Output its pKi only.
Return: 6.00

Enquiry: // Input: "COc1ccccc1N1CCN(C/C=C/CNC(=O)c2cc3ccccc3s2)CC1" . Output its pKi only.
Return: 6.17

Enquiry: // Input: "O=C(NC/C=C/CN1CCN(c2cccc(Cl)c2Cl)CC1)c1cc2ccccc2o1" . Output its pKi only.
Return: 5.84
